Values compiled from paper PMC10299155.

# subject-of-test: T1, 2FJG4P (artificial (motif derived from human …))
# T1 chain: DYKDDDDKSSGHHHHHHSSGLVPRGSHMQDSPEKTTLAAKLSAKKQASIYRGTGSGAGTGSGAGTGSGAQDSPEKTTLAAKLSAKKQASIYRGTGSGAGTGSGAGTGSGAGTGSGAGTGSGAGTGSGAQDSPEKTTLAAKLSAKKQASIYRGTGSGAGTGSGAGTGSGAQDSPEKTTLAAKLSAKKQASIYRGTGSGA
# method-description: EMSA; EMSA: DNA annealed in 200 mM Tris pH 7.4, 100 mM KCl, 1 mM EDTA; binding 10 min at 25 C, native PAGE; smTIRFM: 100 pM tethered DNA, 100-5000 pM protein, buffer
# condition-description: protein: recombinant; tags: N-terminal FLAG-6xHis; label: 3' 6-FAM; intramolecular parallel G4
assay-endpoint: Kd (nM)
One number for each entry, in nM.

Fill in the blank: the reported Kd of TGGGTGGGTAGGGTGGGTTT (structured_DNA) [c-MYCG4 (EMSA)] is ____. 130
